assay.system: SARS-CoV-2 NSP3 macrodomain (Mac1) (Severe acute respiratory syndrome coronavirus 2, UniProt P0DTD1)
Type: binding
test.settings: stereoisomer(s)/conformations of the soaked ligand modeled in the Mac1 crystal structure
measurement.label: Isomers modeled

>>> experimental_result("OC1CCC(O)(CNc2ncnc3[nH]ccc23)CC1 (centres unmarked)")
"rr,rr"
>>> experimental_result("Cc1c[nH]c2ncnc(NCC3(O)CCC(O)CC3)c12 (centres unmarked)")
"rr,rr"
>>> experimental_result("CC1(C)CCN(c2ncnc3[nH]ccc23)C(CO)C1 (centres unmarked)")
"S,S"
>>> experimental_result("Cc1c[nH]c2ncnc(NCC3(O)CCC(C)CC3)c12 (centres unmarked)")
"rr"
>>> experimental_result("CC(C)(O)C1C2CCC2CN1c1ncnc2[nH]ccc12 (centres unmarked)")
"SRR"

Briefly, Isomers modeled measured for CC(O)C(C)Nc1ncnc2[nH]ccc12 (centres unmarked) : RS,RR

Briefly, Isomers modeled measured for CC(C)(O)C1N(c2ncnc3[nH]ccc23)CCC1(C)C (centres unmarked) : R,S

Briefly, Isomers modeled measured for CC1CCC(O)(CNc2ncnc3[nH]ccc23)CC1 (centres unmarked) : rr

Briefly, Isomers modeled measured for "C[C@@H]1CCN(c2ncnc3[nH]ccc23)[C@H](CO)C1" : RS,SR

Briefly, Isomers modeled measured for "O[C@H]1CC[C@H]2CCN(c3ncnc4[nH]ccc34)[C@H]21" : SSR

* * *

assay.system: SARS-CoV-2 NSP3 macrodomain (Mac1) (Severe acute respiratory syndrome coronavirus 2, UniProt P0DTD1)
protocol.description: biochemical
Assay type: binding
test.settings: compound at 200 μM; mean of three to four technical replicates; read-out: % competition at 200 μM (preliminary HTRF screen)
Quick rule for you: inhibition at 200 µM at 40% or higher means Criterion met, lower means Criterion not met.

Prompt: Assess whether reported inhibition at 200 µM for OC1CC(Cn2ccnc2)CC1Nc1ncnc2[nH]ccc12 (stereo not shown) [AVI-3725] sits at 40% or higher.
Response: Criterion not met

Prompt: Assess whether reported inhibition at 200 µM for OC1CCN(c2ncnc3[nH]ccc23)C1 (stereo not shown) [AVI-3661] sits at 40% or higher.
Response: Criterion not met

Prompt: Assess whether reported inhibition at 200 µM for OCC(Nc1ncnc2[nH]ccc12)C1CCOC1 (stereo not shown) [AVI-3679] sits at 40% or higher.
Response: Criterion not met

Prompt: Assess whether reported inhibition at 200 µM for OCC(CC1CC1)Nc1ncnc2[nH]ccc12 (stereo not shown) [AVI-3662] sits at 40% or higher.
Response: Criterion met

Prompt: Assess whether reported inhibition at 200 µM for CC(O)C(C)Nc1ncnc2[nH]ccc12 (stereo not shown) [AVI-5158] sits at 40% or higher.
Response: Criterion not met

Prompt: Assess whether reported inhibition at 200 µM for CNc1ccc(NS(=O)(=O)c2cc3cccc(C)c3s2)cn1 [AVI-345] sits at 40% or higher.
Response: Criterion not met

Prompt: Assess whether reported inhibition at 200 µM for Cn1cc(CC(CO)Nc2ncnc3[nH]ccc23)cn1 (stereo not shown) [AVI-3657] sits at 40% or higher.
Response: Criterion not met

Prompt: Assess whether reported inhibition at 200 µM for OCC(Nc1ncnc2[nH]ccc12)c1ccccc1 (stereo not shown) [AVI-3715] sits at 40% or higher.
Response: Criterion met

Prompt: Assess whether reported inhibition at 200 µM for OC1CCCN(c2ncnc3[nH]ccc23)C1 (stereo not shown) [AVI-3646] sits at 40% or higher.
Response: Criterion not met

Prompt: Assess whether reported inhibition at 200 µM for OCC1(Nc2ncnc3[nH]ccc23)COC1 [AVI-5649] sits at 40% or higher.
Response: Criterion not met

Prompt: Assess whether reported inhibition at 200 µM for OCC(O)C1CCCN1c1ncnc2[nH]ccc12 (stereo not shown) [AVI-3701] sits at 40% or higher.
Response: Criterion met

Prompt: Assess whether reported inhibition at 200 µM for OCC(CC1CCC1)Nc1ncnc2[nH]ccc12 (stereo not shown) [AVI-3641] sits at 40% or higher.
Response: Criterion not met

Prompt: Assess whether reported inhibition at 200 µM for O=C(O)C(F)(F)F.OCC1(Nc2ncnc3[nH]ccc23)CC1 [AVI-3688] sits at 40% or higher.
Response: Criterion met

Prompt: Assess whether reported inhibition at 200 µM for CCC(Nc1ncnc2[nH]ccc12)C(C)(C)O (stereo not shown) [AVI-3667] sits at 40% or higher.
Response: Criterion met

Prompt: Assess whether reported inhibition at 200 µM for O[C@@H]1CNCC[C@H]1Nc1ncnc2[nH]ccc12 [AVI-613] sits at 40% or higher.
Response: Criterion not met

Prompt: Assess whether reported inhibition at 200 µM for OC(c1ccccc1)C1CCCN1c1ncnc2[nH]ccc12 (stereo not shown) [AVI-3652] sits at 40% or higher.
Response: Criterion not met

Prompt: Assess whether reported inhibition at 200 µM for OCC1CC2(CCCCC2)CN1c1ncnc2[nH]ccc12 (stereo not shown) [AVI-3727] sits at 40% or higher.
Response: Criterion met

Prompt: Assess whether reported inhibition at 200 µM for Cc1ccc(CC(CO)Nc2ncnc3[nH]ccc23)cc1C (stereo not shown) [AVI-3684] sits at 40% or higher.
Response: Criterion not met

Prompt: Assess whether reported inhibition at 200 µM for CN1CCN(c2ncnc3[nH]ccc23)C(CO)C1 (stereo not shown) [AVI-3721] sits at 40% or higher.
Response: Criterion not met

Prompt: Assess whether reported inhibition at 200 µM for CC(C)(C)[C@@H]1CCN(c2ncnc3[nH]ccc23)[C@H](CO)C1 [AVI-3722] sits at 40% or higher.
Response: Criterion not met

Prompt: Assess whether reported inhibition at 200 µM for Cc1ccccc1CC(CO)Nc1ncnc2[nH]ccc12 (stereo not shown) [AVI-3674] sits at 40% or higher.
Response: Criterion not met

Prompt: Assess whether reported inhibition at 200 µM for CC(C)CCC(CO)Nc1ncnc2[nH]ccc12.O=C(O)C(F)(F)F (stereo not shown) [AVI-3668] sits at 40% or higher.
Response: Criterion not met
